Reference source for all entries: patent US20220315567A1

Target: human OPRM1 (μ, MOR) (Homo sapiens, UniProt P35372)
Construct: host or cells: CHO-K1
Sequence (P35372 whole entry): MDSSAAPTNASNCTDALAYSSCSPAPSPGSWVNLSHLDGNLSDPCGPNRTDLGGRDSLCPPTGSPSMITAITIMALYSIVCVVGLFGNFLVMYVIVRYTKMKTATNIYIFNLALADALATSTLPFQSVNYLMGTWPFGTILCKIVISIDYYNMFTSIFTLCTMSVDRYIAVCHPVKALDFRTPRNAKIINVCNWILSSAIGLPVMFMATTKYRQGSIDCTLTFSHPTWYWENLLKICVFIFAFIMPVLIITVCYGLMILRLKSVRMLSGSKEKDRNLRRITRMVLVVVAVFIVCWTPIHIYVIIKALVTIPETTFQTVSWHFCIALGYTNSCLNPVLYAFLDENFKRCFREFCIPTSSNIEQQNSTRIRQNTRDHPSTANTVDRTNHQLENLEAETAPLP
Type: cell-based
Structures can show the parent of a compound that is named as a salt.
# Bias Factor (ΔRA of compound relative to ΔRA of DAMGO) × 10 per record follows
measure: Bias Factor (ΔRA of compound relative to ΔRA of DAMGO) × 10

1) CN(C)C1(CNC(=O)N2Cc3ccc(F)cc3C2)CCCCC1 [Compound 46]	−7.08
2) CN(C)C(CNC(=O)N1Cc2ccc(F)cc2C1)c1ccc(F)cc1Cl (stereo not shown) [Compound 17a, hydrochloride]	−12.08
3) CN(C)C(CNC(=O)NC1CCCc2c(O)cccc21)c1ccsc1 (stereo not shown) [Compound 59]	−1.95
4) CN(C)C(CNC(=O)N1Cc2cccc(F)c2C1)c1ccsc1 (stereo not shown) [Compound 3a, hydrochloride]	−5.07
5) CN(C)C(CNC(=O)N1CCCc2cc(F)ccc21)c1ccccc1 (stereo not shown) [Compound 70a]	−10.82
6) CN(C)C(CNC(=O)N1CCCc2cc(O)ccc21)c1ccsc1 (stereo not shown) [Compound 53]	−4.47
7) CN(C)[C@H](CCNC(=O)N[C@@H]1CCc2ccccc2C1)c1ccsc1 [Compound 71]	−3.66
8) CN(C)C1(CNC(=O)N2Cc3ccccc3C2)CCCCC1 [Compound 54]	−3.04
